The measured values listed here are drawn from patent US20250109135A1.

# Tgt: recombinant human Caspase-1 (Homo sapiens)
# Construct: purchased Enzo life science
# Procedure summary: Caspase-1 inhibitory activity, fluorescent substrate Ac-YVAD-AFC
# Type: biochemical
# Stated conditions: pH 8; 1 unit recombinant human Caspase-1, 50 μM Ac-YVAD-AFC; read-out: kobs/[I] Caspase-1
# kinact/KI listing for each entry below
Reported endpoint: kinact/KI

- Compound: "CC[C@@H](C(=O)N[C@H](CC(=O)O)C(=O)COc1c(F)c(F)cc(F)c1F)N1Cc2ccc(-c3ccc4c(c3)OCCO4)cc2C1=O"
  Reported endpoint: "kinact/KI"
  Endpoint result: "0.0167 to 0.167 M⁻¹ s⁻¹"
- Compound: "CC(C)[C@@H](C(=O)NC(CC(=O)O)C(=O)CF)N1Cc2ccc(-c3coc4ccccc34)cc2C1=O (stereo partly drawn)"
  Reported endpoint: "kinact/KI"
  Endpoint result: "0.167 to 0.333 M⁻¹ s⁻¹"
- Compound: "CCC(C(=O)NC(CC(=O)O)C(=O)CF)N1Cc2ccc(-c3ccc(C(F)(F)F)nc3)cc2C1=O (stereo not drawn)"
  Reported endpoint: "kinact/KI"
  Endpoint result: "0.0167 to 0.167 M⁻¹ s⁻¹"
- Compound: "CC(C)[C@@H](C(=O)NC(CC(=O)O)C(=O)CF)N1Cc2ccc(-c3ccc4c(c3)OCCO4)cc2C1=O (stereo partly drawn)"
  Reported endpoint: "kinact/KI"
  Endpoint result: "0.0167 to 0.167 M⁻¹ s⁻¹"
- Compound: "CCC(C(=O)NC(CC(=O)O)C(=O)CF)N1Cc2ccc(Nc3cccc4ccccc34)cc2C1=O (stereo not drawn)"
  Reported endpoint: "kinact/KI"
  Endpoint result: "< 0.0167 M⁻¹ s⁻¹"
- Compound: "CCC(C(=O)NC(CC(=O)O)C(=O)CF)N1Cc2ccc(-c3ccc4occc4c3)cc2C1=O (stereo not drawn)"
  Reported endpoint: "kinact/KI"
  Endpoint result: "0.0167 to 0.167 M⁻¹ s⁻¹"
- Compound: "CCC(C(=O)NC(CC(=O)O)C(=O)CF)N1Cc2ccc(-c3cnn(C)c3)cc2C1=O (stereo not drawn)"
  Reported endpoint: "kinact/KI"
  Endpoint result: "0.0167 to 0.167 M⁻¹ s⁻¹"
- Compound: "CCC(C(=O)NC(CC(=O)O)C(=O)CF)N1Cc2ccc(-c3ccc(C(C)=O)cc3)cc2C1=O (stereo not drawn)"
  Reported endpoint: "kinact/KI"
  Endpoint result: "0.0167 to 0.167 M⁻¹ s⁻¹"
- Compound: "CCC(C(=O)NC(CC(=O)O)C(=O)CF)N1Cc2ccc(-c3ccc(C(=O)O)cc3)cc2C1=O (stereo not drawn)"
  Reported endpoint: "kinact/KI"
  Endpoint result: "0.0167 to 0.167 M⁻¹ s⁻¹"
- Compound: "CCC(C(=O)NC(CC(=O)O)C(=O)CF)N1Cc2ccc(N3CCn4cc(C(F)(F)F)nc4C3)cc2C1=O (stereo not drawn)"
  Reported endpoint: "kinact/KI"
  Endpoint result: "0.0167 to 0.167 M⁻¹ s⁻¹"
- Compound: "CCC(C(=O)NC(CC(=O)O)C(=O)CF)N1Cc2ccc(-c3ccc4ncccc4c3)cc2C1=O (stereo not drawn)"
  Reported endpoint: "kinact/KI"
  Endpoint result: "0.167 to 0.333 M⁻¹ s⁻¹"
- Compound: "CCC(C(=O)NC(CC(=O)O)C(=O)CF)N1Cc2ccc(N3CCN(c4nsc5ccccc45)CC3)cc2C1=O (stereo not drawn)"
  Reported endpoint: "kinact/KI"
  Endpoint result: "< 0.0167 M⁻¹ s⁻¹"
- Compound: "CCC(C(=O)NC(CC(=O)O)C(=O)CF)N1Cc2ccc(N3CCN(S(C)(=O)=O)CC3)cc2C1=O (stereo not drawn)"
  Reported endpoint: "kinact/KI"
  Endpoint result: "< 0.0167 M⁻¹ s⁻¹"
- Compound: "CCC(C(=O)NC(CC(=O)O)C(=O)CF)N1Cc2ccc(-c3cccc4ccccc34)cc2C1=O (stereo not drawn)"
  Reported endpoint: "kinact/KI"
  Endpoint result: "0.0167 to 0.167 M⁻¹ s⁻¹"
- Compound: "CCC(C(=O)NC(CC(=O)O)C(=O)CF)N1Cc2ccc(-c3ccc(OC)nc3)cc2C1=O (stereo not drawn)"
  Reported endpoint: "kinact/KI"
  Endpoint result: "0.0167 to 0.167 M⁻¹ s⁻¹"
- Compound: "CCC(C(=O)NC(CC(=O)O)C(=O)CF)N1Cc2ccc(-c3cn[nH]c3)cc2C1=O (stereo not drawn)"
  Reported endpoint: "kinact/KI"
  Endpoint result: "0.0167 to 0.167 M⁻¹ s⁻¹"
- Compound: "CCC(C(=O)NC(CC(=O)O)C(=O)CF)N1Cc2ccc(-c3cccc4ncccc34)cc2C1=O (stereo not drawn)"
  Reported endpoint: "kinact/KI"
  Endpoint result: "0.0167 to 0.167 M⁻¹ s⁻¹"
- Compound: "CCC(C(=O)NC(CC(=O)O)C(=O)CF)N1Cc2ccc(C3=CCN(S(C)(=O)=O)CC3)cc2C1=O (stereo not drawn)"
  Reported endpoint: "kinact/KI"
  Endpoint result: "0.0167 to 0.167 M⁻¹ s⁻¹"
- Compound: "CC[C@@H](C(=O)NC(CC(=O)O)C(=O)CF)N1Cc2ccc(-c3ccc4c(c3)OCCO4)cc2C1=O (stereo partly drawn)"
  Reported endpoint: "kinact/KI"
  Endpoint result: "0.0167 to 0.167 M⁻¹ s⁻¹"
- Compound: "CCC(C(=O)NC(CC(=O)O)C(=O)CF)N1Cc2ccc(-c3coc4ccccc34)cc2C1=O (stereo not drawn)"
  Reported endpoint: "kinact/KI"
  Endpoint result: "> 0.333 M⁻¹ s⁻¹"
- Compound: "C[C@@H](C(=O)NC(CC(=O)O)C(=O)CF)N1Cc2ccc(-c3coc4ccccc34)cc2C1=O (stereo partly drawn)"
  Reported endpoint: "kinact/KI"
  Endpoint result: "0.167 to 0.333 M⁻¹ s⁻¹"
- Compound: "CCC(C(=O)NC(CC(=O)O)C(=O)CF)N1Cc2ccc(-c3ccn(C)n3)cc2C1=O (stereo not drawn)"
  Reported endpoint: "kinact/KI"
  Endpoint result: "0.0167 to 0.167 M⁻¹ s⁻¹"
- Compound: "CCC(C(=O)NC(CC(=O)O)C(=O)CF)N1Cc2ccc(C3=CCOCC3)cc2C1=O (stereo not drawn)"
  Reported endpoint: "kinact/KI"
  Endpoint result: "< 0.0167 M⁻¹ s⁻¹"
- Compound: "CCC(C(=O)NC(CC(=O)O)C(=O)CF)N1Cc2ccc(-c3ccc4[nH]c(=O)[nH]c4c3)cc2C1=O (stereo not drawn)"
  Reported endpoint: "kinact/KI"
  Endpoint result: "0.0167 to 0.167 M⁻¹ s⁻¹"
- Compound: "CCC(C(=O)NC(CC(=O)O)C(=O)CF)N1Cc2ccc(N3CCCC3)cc2C1=O (stereo not drawn)"
  Reported endpoint: "kinact/KI"
  Endpoint result: "0.0167 to 0.167 M⁻¹ s⁻¹"
- Compound: "CCC(C(=O)NC(CC(=O)O)C(=O)CF)N1Cc2ccc(-c3ccc(S(C)(=O)=O)cc3F)cc2C1=O (stereo not drawn)"
  Reported endpoint: "kinact/KI"
  Endpoint result: "0.0167 to 0.167 M⁻¹ s⁻¹"
- Compound: "CCC(C(=O)NC(CC(=O)O)C(=O)CF)N1Cc2ccc(-c3ccccc3)cc2C1=O (stereo not drawn)"
  Reported endpoint: "kinact/KI"
  Endpoint result: "0.0167 to 0.167 M⁻¹ s⁻¹"
- Compound: "CCC(C(=O)NC(CC(=O)O)C(=O)CF)N1Cc2ccc(-c3ccnc4ccccc34)cc2C1=O (stereo not drawn)"
  Reported endpoint: "kinact/KI"
  Endpoint result: "0.0167 to 0.167 M⁻¹ s⁻¹"
- Compound: "CC[C@@H](C(=O)NC(CC(=O)O)C(=O)CF)N1Cc2ccc(-c3ccc4[nH]c(=O)[nH]c4c3)cc2C1=O (stereo partly drawn)"
  Reported endpoint: "kinact/KI"
  Endpoint result: "0.167 to 0.333 M⁻¹ s⁻¹"
- Compound: "CCC(C(=O)NC(CC(=O)O)C(=O)CF)N1Cc2ccc(-c3cnc(N)nc3)cc2C1=O (stereo not drawn)"
  Reported endpoint: "kinact/KI"
  Endpoint result: "0.0167 to 0.167 M⁻¹ s⁻¹"

---

# Tgt: recombinant human Caspase-1 (Homo sapiens, UniProt P29466)
# Construct: purchased Enzo life science
# Sequence (P29466 120-297 limits assumed): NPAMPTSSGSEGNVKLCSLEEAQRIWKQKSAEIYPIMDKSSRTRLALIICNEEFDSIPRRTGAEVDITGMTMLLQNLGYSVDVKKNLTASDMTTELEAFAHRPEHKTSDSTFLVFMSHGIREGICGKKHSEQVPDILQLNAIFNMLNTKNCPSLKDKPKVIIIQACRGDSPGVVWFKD
# Sequence (P29466 317-404 limits assumed): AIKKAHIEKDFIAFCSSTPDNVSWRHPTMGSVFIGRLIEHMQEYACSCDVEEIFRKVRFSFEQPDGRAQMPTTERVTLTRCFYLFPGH
# Procedure summary: Caspase-1 inhibitory activity, fluorescent substrate Ac-YVAD-AFC
# Format: biochemical
# Stated conditions: pH 8, read-out: kobs/[I] Caspase-1

- Compound: "CCC(C(=O)NC(CC(=O)O)C(=O)CF)N1Cc2ccc(-c3cnc4ccccc4c3)cc2C1=O (stereo not shown)"
  kinact/KI: "0.0167 to 0.167 M⁻¹ s⁻¹"
- Compound: "O=C(O)CC(NC(=O)CN1Cc2ccc(-c3ccc4[nH]c(=O)[nH]c4c3)cc2C1=O)C(=O)CF (stereo not shown)"
  kinact/KI: "< 0.0167 M⁻¹ s⁻¹"
- Compound: "CC[C@@H](C(=O)N[C@@H](CC(=O)O)C(=O)COc1c(F)c(F)cc(F)c1F)N1Cc2ccc(-c3ccc4[nH]c(=O)[nH]c4c3)cc2C1=O"
  kinact/KI: "> 0.333 M⁻¹ s⁻¹"
- Compound: "CC(C)[C@@H](C(=O)NC(CC(=O)O)C(=O)CF)N1Cc2ccc(-c3ccc4[nH]c(=O)[nH]c4c3)cc2C1=O (stereo partly shown)"
  kinact/KI: "0.0167 to 0.167 M⁻¹ s⁻¹"
- Compound: "CC[C@@H](C(=O)NC(CC(=O)O)C(=O)CF)N1Cc2cc(-c3coc4ccccc34)ccc2C1=O (stereo partly shown)"
  kinact/KI: "0.0167 to 0.167 M⁻¹ s⁻¹"
- Compound: "CC[C@@H](C(=O)NC(CC(=O)O)C(=O)CF)N1Cc2cc(-c3ccc4c(c3)OCCO4)ccc2C1=O (stereo partly shown)"
  kinact/KI: "0.0167 to 0.167 M⁻¹ s⁻¹"
- Compound: "O=C(O)CC(NC(=O)CN1Cc2ccc(-c3ccc4occc4c3)cc2C1=O)C(=O)CF (stereo not shown)"
  kinact/KI: "0.0167 to 0.167 M⁻¹ s⁻¹"
